Assay Summary: small-molecule binders of probe aInhba, primary screen, biochemical, small-molecule microarray, 635/667 nm fluorescence (AID 1148);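 note: score merges 667nm spot fluorescence with signal-to-noise for antibody binding to printed compounds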
Particulars: higher = more signal
Kindly state composite z-score for each of the entries shown.
Numbers only.

Would you please look over these solved cases?
CCCCCN1CC=CC23O[C@@H]4C=CCOC(=O)[C@@H]4[C@H]2C(=O)N(CCCCCO)[C@@H]3C1=O (some centres undefined) = -0.213
CC(C)C[C@@H]1NC(=O)[C@@H]2C[C@H](C(=O)O)[C@H](c3ccc(O)cc3)N2C1=O = -0.013
O=C1OCCC=C[C@H]2OC34C=CCN(CCN5CCOCC5)C(=O)[C@H]3N(CCCO)C(=O)[C@@H]4C12 (some centres undefined) = -0.0066

Now, please, on to the next compound.
// lookup composite z-score for O=C1O[C@@H](c2ccccc2)[C@@H](c2ccccc2)N2[C@@H](c3ccc(O)cc3)[C@]3(C(=O)Nc4ccc(C#CC5=CCCCC5)cc43)[C@@H](C(=O)N3CCCCCCC3)[C@H]12
1.04

###

Assay Summary: osmotic lysis modulators in infected erythrocytes, primary screen, PSAC antagonist project, cell-based, P. falciparum Indochina, OD700, 3 h (AID 1156)
Particulars: higher = more signal, called active from +8 up or from −8 down
The source made the active and inactive calls.
I'd appreciate it if you could supply z-score values for the items below.

I would be grateful if you could provide z-score for each of the following entries.
1. CC(C)C(=C=CC[C@@H](O)c1cccc(OCCO)c1)CCO
2. COCCOC(=O)N1C(=O)[C@@]2(c3cc(C#CC4=CCCCC4)ccc31)[C@H](c1ccc(OCCO)cc1)N1[C@H](c3ccccc3)[C@H](c3ccccc3)OC(=O)[C@H]1[C@@H]2C(=O)N1CCCCCCC1
3. COC(=O)[C@@]1(Cc2ccccc2CN=[N+]=[N-])COC(c2ccc(OCCCO)cc2)=N1

0.607 (inactive)
0.171 (inactive)
4.61 (inactive)

Using the record for O=C1NC(=O)C2C1C=CC(C(O)c1cccc(O)c1)N2Nc1ccc(Cl)cc1Cl (centres undefined) , report its z-score.
-0.608 (inactive)

###

Assay Summary: CREB reporter modulators under forskolin, primary screen, cell-based, PC12, CRE-LacZ reporter, forskolin-stimulated (AID 1146);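 note: PC12 cells with 6xCRE LacZ reporter stimulated by forskolin 10 µM; beta-galactosidase reporter signal reflecting CREB driven transcription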
Particulars: luminescence, 4.5 h, higher = more signal, called active from +8 up or from −8 down
Recorded Metric: z-score
Answers are plain numbers.

Recorded results for 3 molecules are shown here.
CCCC[C@@H]1C[C@H]1[C@@H](NC(=O)c1ccc(C(F)(F)F)cc1)c1ccc(C(=O)OC)cc1 = -0.269
COc1ccc([Si](C)(C)[C@@H]2[C@@H](CC(=O)N(CCO)Cc3ccccc3)O[C@]3(C(=O)N(Cc4ccc(N5CCC5=O)cc4)c4ccccc43)[C@H]2C)cc1 = 0.0245
O=C1C2C=CC(C(O)c3cccs3)N(Nc3ccccc3)C2C(=O)N1c1ccccc1 (centres undefined) = 0.592

What value of z-score has been recorded for this entry: O=C1OCCC=C[C@H]2OC34C=CCN(c5ccc(Cl)cc5)C(=O)[C@H]3N(CCO)C(=O)[C@@H]4C12 (some centres undefined)
-0.256

###

Assay Summary: inhibitors of hydroxyurea-induced Chk1 phosphorylation, primary screen, imaging, HeLa, phospho-Chk1 nuclear intensity (AID 1187); note: test concentration not given here
Particulars: hydroxyurea-induced phospho-Chk1 immunofluorescence imaging, higher = more signal
Recorded Metric: z-score
Answers are plain numbers.

COCCOC(=O)N1C(=O)[C@@]2(c3cc(C#CCCO)ccc31)[C@H](C(=O)N1CCN(c3ncccn3)CC1)[C@H]1C(=O)O[C@H](c3ccccc3)[C@H](c3ccccc3)N1[C@@H]2c1ccc(O)cc1 = -0.772

For each of the molecules below, state z-score.
1. C=CC[C@@]1(C(=O)N(C)C)N=C(c2ccc(OCCCO)cc2)O[C@@H]1c1ccccc1
2. Cc1ccc(F)cc1S(=O)(=O)N[C@@H]1CCN(Cc2ccc3c(c2)OCO3)C1
3. CO[C@H]1O[C@H](CO)[C@@H](OC(=O)Nc2ccc(C(F)(F)F)cc2)[C@H](OC(=O)Nc2ccccc2-c2ccccc2)[C@@H]1OC(=O)Nc1ccccc1-c1ccccc1
4. C/C=C/CN(C(=O)C#Cc1ccccc1)[C@H](CO[Si](C)(C)C(C)(C)C)c1ccccc1

0.0811
-0.271
0.0324
-0.0994

Look up z-score for the entries below, preserving their order.
1. COCC1=C([C@H](O)CCc2ccccc2)[C@H](CO)n2c(=O)n(-c3ccccc3)c(=O)n2C1
2. CC(=O)c1ccc(C(O)C2C=CC3C(=O)N(C)C(=O)C3N2NC(=O)OC(C)(C)C)cc1 (stereo not drawn)
3. C=C(/C(=C/C[C@@H](OC(C)=O)c1ccccc1OCCO)c1cc(C(=O)OC)ccc1OC)C(C)C

1: 1.51; 2: 0.688; 3: 0.766

###

Kindly supply the reported composite z-score values for the records listed here.
Tgt: Follistatin (Homo sapiens)
Assay Summary: follistatin binders on small-molecule microarrays, primary screen, biochemical, small-molecule microarray, 635/667 nm fluorescence (AID 1132)
Particulars: FST binding, 635 nm fluorescence, higher = more signal
Give bare numbers.

These recorded examples may help you get a feel for the data.
C[C@@H](OCc1ccccc1)C1NC(=O)[C@@]23C(=O)N[C@@H](Cc4ccccc4)C2[C@H](C)[C@@]2(C)O[C@H]2C3/C=C/C/C=C\CNC(=O)[C@H](Cc2ccccc2)NC1=O (some centres not stated) = 0.793
COC(=O)[C@@]1(Cc2ccc(F)cc2)[C@H]2c3cc(C(=O)N(C)C)n(CCO)c3C[C@H]2CN1C(=O)c1ccccc1 = -0.409
COCCOC(=O)N1C(=O)[C@@]2(c3cc(C#CCC(C(=O)OC)C(=O)OC)ccc31)[C@H](C(=O)N1CCc3cc(OC)c(OC)cc3C1)[C@H]1C(=O)O[C@H](c3ccccc3)[C@H](c3ccccc3)N1[C@@H]2c1ccc(O)cc1 = 1.36
[N-]=[N+]=NCc1ccccc1C[C@]1(C(=O)N2CCOCC2)N=C(c2ccc(OCCCO)cc2)O[C@H]1c1ccccc1CN=[N+]=[N-] = 1.3

For every item below, please supply its composite z-score.
1. C=CCC(OC(C)=O)[C@@H]1[C@@H](N(Cc2ccc(-c3cccc(C(F)(F)F)c3)o2)C(=O)Cc2ccc(F)cc2)c2cc(OCCCO)ccc2N1C(=O)c1ccc2ccccc2c1 (some centres not stated)
2. COCCOC(=O)N1C(=O)[C@@]2(c3cc(C#CCCO)ccc31)[C@H](C(=O)N1CCN(c3ncccn3)CC1)[C@H]1C(=O)O[C@H](c3ccccc3)[C@H](c3ccccc3)N1[C@@H]2c1ccc(O)cc1
3. COCCOC(=O)N1C(=O)[C@@]2(c3cc(C#CC4(O)CCCCCC4)ccc31)[C@H](c1ccc(OCCO)cc1)N1[C@H](c3ccccc3)[C@H](c3ccccc3)OC(=O)[C@H]1[C@@H]2C(N)=O
4. COCCOC(=O)N1C(=O)[C@@]2(c3cc(C#CC4(O)CCCCCC4)ccc31)[C@H](c1ccc(OCCO)cc1)N1[C@H](c3ccccc3)[C@H](c3ccccc3)OC(=O)[C@H]1[C@@H]2C(=O)N1CCCCCCC1
5. CC1(C)OC[C@@]23C=C(Br)[C@@H](C[C@H]12)[C@@]1(CO1)C3=O
6. CN1C(=O)C2C=CC(C(O)c3ccc(-c4ccccc4)s3)N(Nc3ccccc3)C2C1=O (configuration not stated)

1. 0.426
2. 0.577
3. 1.38
4. 1.39
5. 0.369
6. 1.12

Please give composite z-score for each item listed below.
1. Cc1ccc(F)cc1S(=O)(=O)N[C@@H]1CCN(Cc2ccc3[nH]ccc3c2)C1
2. COc1ccc([Si](C)(C)[C@H]2[C@H](CCO)O[C@@]3(C(=O)N(Cc4ccccc4)c4ccc(N(C=O)c5ccccc5)cc43)[C@@H]2C)cc1

1: 1.06; 2: 0.919

###

Assay Summary: CREB reporter modulators under forskolin, primary screen, cell-based, PC12, CRE-LacZ reporter, forskolin-stimulated (AID 1146);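 note: PC12 cells with 6xCRE LacZ reporter stimulated by forskolin 10 µM; beta-galactosidase reporter signal reflecting CREB driven transcription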
Particulars: luminescence, 4.5 h, called active from +8 up or from −8 down
The source made the active and inactive calls.
API: response.call in class 1 for active, class 0 for inactive

CCOC(=O)C[C@H]1[C@H](OC(=O)c2ccc(C(=O)c3ccccc3)cc2)[C@@H](NC(=O)c2ccc3ccccc3c2)c2cc(OCCCO)ccc2N1C(=O)c1ccc2ccccc2n1 = class 0
COCCOC(=O)N1C(=O)[C@@]2(c3cc(C#CC4=CCCCC4)ccc31)[C@H](C(=O)N1CCc3cc(OC)c(OC)cc3C1)[C@H]1C(=O)O[C@H](c3ccccc3)[C@H](c3ccccc3)N1[C@@H]2c1ccc(O)cc1 = class 0
Cc1ccc(S[C@]2(C(=O)NCCCN(C)C)CC(=O)N(Cc3ccccc3Cl)[C@@H]2c2ccc(CO)cc2I)cc1 = class 0

So what was the verdict on CC(=O)c1ccc(C(O)C2C=CC3C(=O)N(C)C(=O)C3N2NC(=O)OC(C)(C)C)cc1 (configuration not stated) in this test?
class 0

Please share the test call associated with CCCC[C@H]1OB(O)C[C@H]2C1=C(C)C[C@H]1C(=O)C=CC(=O)[C@H]12 .
class 1

Give the logged outcome of this assay for the following molecule: CCCCCCCCCCC(O)C1C=CC2C(=O)N(C)C(=O)C2N1N1CCCCC1 (configuration not stated)
class 0

Would you mind telling me which call this test gave CC(C)C[C@@H]1NC(=O)[C@@H]2C[C@H](C(=O)NCCCC[N+](C)(C)C)[C@H](c3ccc(O)cc3)N2C1=O ?
class 0
